# Inhibition at 1:1 (ThT assay, Aβ:cyclic peptide) values compiled below
SYSTEM_TESTED: Aβ40 (UniProt P05067 672-711)
Sequence (P05067 672-711 limits assumed): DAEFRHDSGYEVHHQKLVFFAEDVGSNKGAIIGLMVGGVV
ASSAY_INFO: cell-based or functional assay
Square brackets hold non-standard residues; d marks the D form.
Field: numeric (%). Do not append units.

Input: Respond only with Inhibition at 1:1 (ThT assay, Aβ:cyclic peptide) recorded for cyclo([dL]L[dW]H[dS]A) (SMILES CC(C)C[C@@H]1NC(=O)[C@@H](CC(C)C)NC(=O)[C@H](C)NC(=O)[C@@H](CO)NC(=O)[C@H](Cc2c[nH]cn2)NC(=O)[C@@H](Cc2c[nH]c3ccccc23)NC1=O) [[lLwHsA]: Cyclo-D-leucine-L-leucine-D-tryptophan-L-histidine-D-serine-L-alanine]
Output: 67
